Target or test system: Protein deacetylase HDAC6 (Homo sapiens, UniProt Q9UBN7)
Experiment notes: Inhibition of HDAC6 (unknown origin) using Ac-peptide as substrate preincubated for 15 mins followed by substrate addition and measured after 1 hr by fluorescence based assay
Reported property: IC50

Structure as smiles: CCCNNC(=O)/C=C/c1ccc(CNCCc2c(C)[nH]c3ccccc23)cc1
Reported property: IC50
Result: > 50 nM

###

Target or test system: Histone deacetylase 1 (Homo sapiens, UniProt Q13547)
Sequence (Q13547 whole entry): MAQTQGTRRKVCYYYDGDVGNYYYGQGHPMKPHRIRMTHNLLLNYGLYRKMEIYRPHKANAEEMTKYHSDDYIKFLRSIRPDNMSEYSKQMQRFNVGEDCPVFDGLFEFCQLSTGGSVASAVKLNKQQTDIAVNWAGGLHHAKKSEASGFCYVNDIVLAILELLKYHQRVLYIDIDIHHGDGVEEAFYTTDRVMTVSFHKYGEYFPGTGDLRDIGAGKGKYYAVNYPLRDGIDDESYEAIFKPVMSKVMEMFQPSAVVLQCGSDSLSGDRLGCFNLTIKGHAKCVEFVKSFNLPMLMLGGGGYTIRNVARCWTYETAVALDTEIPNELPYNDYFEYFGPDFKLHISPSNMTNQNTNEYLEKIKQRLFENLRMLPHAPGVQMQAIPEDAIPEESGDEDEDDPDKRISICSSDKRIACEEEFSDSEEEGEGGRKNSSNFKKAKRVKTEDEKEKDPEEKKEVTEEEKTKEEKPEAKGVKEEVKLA
Experiment notes: Inhibition of HDAC1 (unknown origin) using ZMAL (Z-Lys(Ac)-AMC as fluorogenic substrate pre-incubated for 30 mins measured for 1 hr by fluorescence based analysis
pIC50: −log10 of the molar value.
Reported property: pIC50

Structure as smiles: Cc1ccccc1/C=C/C(=O)Nc1ccc(C(=O)NS(=O)(=O)c2ccc(NCCCCCCC(=O)NO)c([N+](=O)[O-])c2)c(Oc2ccccc2)c1
Reported property: pIC50
Readout number: 6.99

Structure as smiles: O=C(Cc1ccc(C(=O)NO)cc1)Nc1ccc2ncnc(Nc3ccc(Br)c(F)c3)c2c1
Reported property: pIC50
Readout number: 6.13

Structure as smiles: CN(c1ccccc1)c1ncc(NC(=O)CS)cn1
Reported property: pIC50
Readout number: 5.70

###

Target or test system: Protein deacetylase HDAC6 (Homo sapiens)
Sequence (Q9UBN7 whole entry): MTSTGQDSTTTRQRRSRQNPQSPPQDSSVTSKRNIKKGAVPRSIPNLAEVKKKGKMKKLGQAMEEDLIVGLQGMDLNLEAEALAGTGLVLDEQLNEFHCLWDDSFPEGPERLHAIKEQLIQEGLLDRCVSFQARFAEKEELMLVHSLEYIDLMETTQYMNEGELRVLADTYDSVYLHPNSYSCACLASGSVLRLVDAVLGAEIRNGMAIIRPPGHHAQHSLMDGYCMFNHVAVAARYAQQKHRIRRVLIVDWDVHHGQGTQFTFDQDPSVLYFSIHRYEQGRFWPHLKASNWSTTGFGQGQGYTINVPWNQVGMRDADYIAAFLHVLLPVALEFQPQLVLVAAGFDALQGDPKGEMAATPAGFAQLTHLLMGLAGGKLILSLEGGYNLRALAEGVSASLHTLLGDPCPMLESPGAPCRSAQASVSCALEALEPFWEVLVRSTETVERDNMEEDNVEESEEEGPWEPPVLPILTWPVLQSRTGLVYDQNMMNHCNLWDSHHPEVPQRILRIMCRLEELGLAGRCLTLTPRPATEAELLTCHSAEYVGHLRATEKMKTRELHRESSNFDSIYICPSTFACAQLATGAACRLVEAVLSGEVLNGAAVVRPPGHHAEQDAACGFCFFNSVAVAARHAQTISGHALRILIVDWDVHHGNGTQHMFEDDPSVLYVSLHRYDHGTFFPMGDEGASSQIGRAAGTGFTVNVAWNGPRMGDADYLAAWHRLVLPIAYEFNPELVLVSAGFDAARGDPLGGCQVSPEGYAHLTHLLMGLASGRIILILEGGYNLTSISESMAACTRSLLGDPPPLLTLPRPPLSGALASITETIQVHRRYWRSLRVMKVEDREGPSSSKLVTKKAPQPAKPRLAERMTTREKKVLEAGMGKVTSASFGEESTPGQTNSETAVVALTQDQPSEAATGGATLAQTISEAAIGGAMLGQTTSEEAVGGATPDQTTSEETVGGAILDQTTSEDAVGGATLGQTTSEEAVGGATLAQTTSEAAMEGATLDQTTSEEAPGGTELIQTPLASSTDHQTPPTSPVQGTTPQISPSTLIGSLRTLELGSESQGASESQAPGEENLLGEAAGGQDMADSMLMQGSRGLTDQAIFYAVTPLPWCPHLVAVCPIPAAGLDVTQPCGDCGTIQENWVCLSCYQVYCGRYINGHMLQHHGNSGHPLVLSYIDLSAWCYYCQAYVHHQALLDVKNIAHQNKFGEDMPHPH
Experiment notes: Inhibition of HDAC6 (unknown origin)
pIC50: −log10 of the molar value.
Reported property: pIC50

Structure as smiles: O=C(CS)Nc1ccc(Cn2c3c(c4ccccc42)CS(=O)(=O)CC3)cc1
Target or test system: Protein deacetylase HDAC6 (Homo sapiens)
Reported property: pIC50
Readout number: 6.89
